TARGET OR SYSTEM: UniProt:Q04759
QUANTITY NAME: IC50

molecule="CC(c1ccccc1F)n1c(=O)[nH]c2ncc(-c3cccc4ncccc34)nc21 (stereo not drawn) [Compound 51]" reported_value="5.1 to 10 µM"

Provide each entry's IC50 from the list below.
1. C[C@H](c1ccccc1)n1c(=O)[nH]c2cnc(-c3cccc4ncccc34)cc21 [Compound 24]
2. C[C@@H](c1ccccc1)n1c(=O)[nH]c2ncc(-c3cccc4ccccc34)nc21 [Compound 7]

Key:
1. > 30 µM
2. > 30 µM

---

Endpoint: IC50. System: PKCθ (Homo sapiens). Items follow.
Sequence (Q04759 whole entry): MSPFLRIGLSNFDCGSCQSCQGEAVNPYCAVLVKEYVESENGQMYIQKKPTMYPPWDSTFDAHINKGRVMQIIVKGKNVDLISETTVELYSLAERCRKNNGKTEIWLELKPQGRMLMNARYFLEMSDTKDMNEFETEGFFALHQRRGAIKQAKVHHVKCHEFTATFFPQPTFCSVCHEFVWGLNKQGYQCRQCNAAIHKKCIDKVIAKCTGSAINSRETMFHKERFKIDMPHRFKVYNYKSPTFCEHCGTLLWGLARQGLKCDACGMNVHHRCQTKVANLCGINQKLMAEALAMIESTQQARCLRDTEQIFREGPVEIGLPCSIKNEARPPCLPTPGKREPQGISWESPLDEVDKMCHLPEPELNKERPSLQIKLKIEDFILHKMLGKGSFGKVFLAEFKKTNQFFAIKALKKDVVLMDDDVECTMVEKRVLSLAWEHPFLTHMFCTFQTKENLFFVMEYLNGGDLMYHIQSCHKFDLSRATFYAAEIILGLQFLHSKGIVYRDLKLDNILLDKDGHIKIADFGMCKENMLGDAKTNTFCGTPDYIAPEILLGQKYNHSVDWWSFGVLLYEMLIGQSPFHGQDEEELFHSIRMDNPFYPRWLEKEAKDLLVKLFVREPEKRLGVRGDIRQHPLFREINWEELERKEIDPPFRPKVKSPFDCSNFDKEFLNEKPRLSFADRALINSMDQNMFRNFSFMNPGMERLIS

Here is how some compounds turned out for IC50.
compound=COc1ccc(C(C)C)cc1-c1cnc2[nH]c(=O)n([C@@H](CO)C(C)C)c2n1 reported_value="10.1 to 20 µM"
compound=C[C@H](c1ccccc1)n1c(=O)[nH]c2ccc(-c3cccc4ncccc34)nc21 reported_value="5.1 to 10 µM"
compound=O=c1[nH]c2ncc(-c3cccc4ncccc34)nc2n1C1CCCC1 reported_value="> 30 µM"

Provide each entry's IC50 from the list below.
1. C[C@H](c1ccccc1)n1c(=O)[nH]c2nccnc21
2. COc1ccc(C(C)C)cc1-c1cnc2[nH]c(=O)n(C3CCCCC3)c2n1
3. C[C@@H](c1ccccc1)n1c(=O)[nH]c2cnc(-c3cccc4ncccc34)cc21
4. COc1ccc(C(C)C)cc1-c1cnc2[nH]c(=O)n(CCO)c2n1

Key:
1: > 30 µM; 2: > 30 µM; 3: > 30 µM; 4: > 30 µM

Provide each entry's IC50 from the list below.
1. C[C@@H](c1ccccc1)n1c(=O)[nH]c2nccnc21
2. COc1ccc(C(C)C)cc1-c1cnc2[nH]c(=O)n(CC3CCCC3)c2n1
3. COc1ccc(C(C)C)cc1-c1cnc2[nH]c(=O)n(CC3CCCCC3)c2n1
4. COc1cccc(Cn2c(=O)[nH]c3ncc(-c4ccc(S(C)(=O)=O)cc4)nc32)c1
5. COc1ccc(C(C)C)cc1-c1cnc2[nH]c(=O)n([C@H]3CCOC3)c2n1
6. O=c1[nH]c2ncc(-c3cccc4ncccc34)nc2n1C1CCC(O)CC1 (centres unmarked) [Compound 60]
7. CC(c1ccc(S(C)(=O)=O)cc1)n1c(=O)[nH]c2ncc(-c3cccc4ncccc34)nc21 (centres unmarked)
8. CC(c1ccccc1)n1c(=O)[nH]c2ncc(-c3cccc(NS(C)(=O)=O)c3)nc21 (centres unmarked)

Key:
1. > 30 µM
2. > 30 µM
3. > 30 µM
4. > 30 µM
5. > 30 µM
6. 20.1 to 30 µM
7. > 30 µM
8. 10.1 to 20 µM

Provide each entry's IC50 from the list below.
1. CC(c1ccccc1)n1c(=O)[nH]c2ncc(-c3ccc(C(F)(F)F)cc3)nc21 (centres unmarked)
2. COc1ccc(C(C)C)cc1-c1cnc2[nH]c(=O)n(C(C)C)c2n1

Key:
> 30 µM
5.1 to 10 µM

Values compiled from patent US7981893B2.
